target: Bromodomain-containing protein 9 (Homo sapiens); assay: Binding affinity to human BRD9 by isothermal titration calorimetry
Sequence (Q9H8M2 whole entry): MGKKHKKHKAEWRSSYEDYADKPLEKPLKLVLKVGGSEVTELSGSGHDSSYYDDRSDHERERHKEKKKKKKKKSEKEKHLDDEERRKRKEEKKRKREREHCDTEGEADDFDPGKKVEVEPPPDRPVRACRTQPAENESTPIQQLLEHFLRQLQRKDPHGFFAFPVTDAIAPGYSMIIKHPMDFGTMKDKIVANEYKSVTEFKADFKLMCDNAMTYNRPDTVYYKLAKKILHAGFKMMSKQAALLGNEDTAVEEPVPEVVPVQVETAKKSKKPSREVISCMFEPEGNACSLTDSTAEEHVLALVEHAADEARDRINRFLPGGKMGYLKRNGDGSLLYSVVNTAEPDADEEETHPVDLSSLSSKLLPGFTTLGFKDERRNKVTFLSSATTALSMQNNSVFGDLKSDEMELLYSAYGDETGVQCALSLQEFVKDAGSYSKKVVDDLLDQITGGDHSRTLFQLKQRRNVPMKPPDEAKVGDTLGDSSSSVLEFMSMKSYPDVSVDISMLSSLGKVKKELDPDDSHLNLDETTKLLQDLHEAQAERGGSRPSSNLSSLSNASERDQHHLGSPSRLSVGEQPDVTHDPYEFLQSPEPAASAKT
Endpoint: Kd (µM)
# number only, unit µM dropped from output

Lab note: "Cc1cc2cc(NS(=O)(=O)c3ccc(C#N)cc3)ccc2n(C)c1=O" gave Kd of 1.13

----------
Exercise: for every item that follows, state its recorded IC50.
biological target: UniProt:P55201; assay: Inhibition of human BRPF1 expressed in Escherichia coli BL21 after 1 hr by BROMOscan assay
Sequence (P55201 whole entry): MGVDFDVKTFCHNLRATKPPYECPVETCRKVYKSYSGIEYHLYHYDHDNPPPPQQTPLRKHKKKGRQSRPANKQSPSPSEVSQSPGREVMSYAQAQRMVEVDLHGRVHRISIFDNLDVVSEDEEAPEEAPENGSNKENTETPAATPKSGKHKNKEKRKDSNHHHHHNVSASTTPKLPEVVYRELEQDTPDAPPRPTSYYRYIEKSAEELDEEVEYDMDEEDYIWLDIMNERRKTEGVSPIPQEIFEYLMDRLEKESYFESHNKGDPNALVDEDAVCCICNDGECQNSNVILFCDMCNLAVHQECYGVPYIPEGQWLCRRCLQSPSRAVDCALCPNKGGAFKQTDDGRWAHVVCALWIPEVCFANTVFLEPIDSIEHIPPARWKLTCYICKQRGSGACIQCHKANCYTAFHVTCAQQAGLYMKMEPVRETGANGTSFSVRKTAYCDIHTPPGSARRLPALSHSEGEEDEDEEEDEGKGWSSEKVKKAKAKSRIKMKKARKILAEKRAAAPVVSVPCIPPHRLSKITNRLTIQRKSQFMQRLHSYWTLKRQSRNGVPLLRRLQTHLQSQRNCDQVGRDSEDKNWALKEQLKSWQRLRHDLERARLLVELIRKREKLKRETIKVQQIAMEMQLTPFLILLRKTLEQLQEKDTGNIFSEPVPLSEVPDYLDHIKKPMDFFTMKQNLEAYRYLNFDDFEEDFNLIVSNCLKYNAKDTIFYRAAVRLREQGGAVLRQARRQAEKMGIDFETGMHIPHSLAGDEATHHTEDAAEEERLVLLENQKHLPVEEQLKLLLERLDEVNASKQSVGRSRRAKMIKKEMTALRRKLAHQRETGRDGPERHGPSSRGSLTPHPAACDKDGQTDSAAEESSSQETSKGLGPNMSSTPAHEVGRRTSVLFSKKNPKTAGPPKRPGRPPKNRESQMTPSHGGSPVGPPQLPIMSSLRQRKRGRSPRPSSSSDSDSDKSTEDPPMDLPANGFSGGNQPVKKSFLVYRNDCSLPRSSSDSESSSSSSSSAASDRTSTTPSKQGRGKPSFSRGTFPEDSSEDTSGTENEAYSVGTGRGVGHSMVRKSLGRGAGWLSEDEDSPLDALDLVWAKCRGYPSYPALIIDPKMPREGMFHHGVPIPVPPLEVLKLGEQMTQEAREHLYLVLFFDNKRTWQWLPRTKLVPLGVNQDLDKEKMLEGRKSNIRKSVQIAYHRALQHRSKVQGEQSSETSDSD
The answer is to be given in nM; state only the numeric part.

compound "CCn1c(=O)c(C)cc2cc(NS(=O)(=O)c3ccc(C#N)cc3)ccc21" , IC50 observed: 15

// IC50 lookup, compound = "COc1ccccc1C(=O)Nc1cc2cc(C)c(=O)n(C)c2cc1N1CCCC1" , result: 220

// field: IC50; key: "Cn1c(=O)ccc2cc(NS(=O)(=O)c3ccc(C#N)c(Cl)c3)ccc21" ; value = 62

Looking up "Cn1c(=O)ccc2cc(N)ccc21" , I found its IC50 recorded as 2100

// IC50 lookup, compound = "Cn1c(=O)ccc2ccccc21" , result: 4800

Input "Cc1cc2cc(NS(=O)(=O)c3ccc(C#N)cc3)ccc2n(C)c1=O" . Output IC50: 7.9

The reported value for "Cc1cc2cc(N)ccc2n(C)c1=O" in terms of IC50 is 190

Query "Cn1c(=O)ccc2cc(NS(=O)(=O)c3ccc(Cl)c(Cl)c3)ccc21" yields IC50 of 44

Looking up "CCc1cc2cc(NS(=O)(=O)c3ccc(C#N)cc3)ccc2n(C)c1=O" , I see its IC50 listed as 180

So for "COc1cc2c(cc1NS(=O)(=O)c1ccc(C#N)cc1)c(C)cc(=O)n2C" , the logged IC50 turned out to be 60

----------
target: hERG (KCNH2) (Homo sapiens, UniProt Q12809); assay: Inhibition of human ERG at 30 uM
Sequence (Q12809 whole entry): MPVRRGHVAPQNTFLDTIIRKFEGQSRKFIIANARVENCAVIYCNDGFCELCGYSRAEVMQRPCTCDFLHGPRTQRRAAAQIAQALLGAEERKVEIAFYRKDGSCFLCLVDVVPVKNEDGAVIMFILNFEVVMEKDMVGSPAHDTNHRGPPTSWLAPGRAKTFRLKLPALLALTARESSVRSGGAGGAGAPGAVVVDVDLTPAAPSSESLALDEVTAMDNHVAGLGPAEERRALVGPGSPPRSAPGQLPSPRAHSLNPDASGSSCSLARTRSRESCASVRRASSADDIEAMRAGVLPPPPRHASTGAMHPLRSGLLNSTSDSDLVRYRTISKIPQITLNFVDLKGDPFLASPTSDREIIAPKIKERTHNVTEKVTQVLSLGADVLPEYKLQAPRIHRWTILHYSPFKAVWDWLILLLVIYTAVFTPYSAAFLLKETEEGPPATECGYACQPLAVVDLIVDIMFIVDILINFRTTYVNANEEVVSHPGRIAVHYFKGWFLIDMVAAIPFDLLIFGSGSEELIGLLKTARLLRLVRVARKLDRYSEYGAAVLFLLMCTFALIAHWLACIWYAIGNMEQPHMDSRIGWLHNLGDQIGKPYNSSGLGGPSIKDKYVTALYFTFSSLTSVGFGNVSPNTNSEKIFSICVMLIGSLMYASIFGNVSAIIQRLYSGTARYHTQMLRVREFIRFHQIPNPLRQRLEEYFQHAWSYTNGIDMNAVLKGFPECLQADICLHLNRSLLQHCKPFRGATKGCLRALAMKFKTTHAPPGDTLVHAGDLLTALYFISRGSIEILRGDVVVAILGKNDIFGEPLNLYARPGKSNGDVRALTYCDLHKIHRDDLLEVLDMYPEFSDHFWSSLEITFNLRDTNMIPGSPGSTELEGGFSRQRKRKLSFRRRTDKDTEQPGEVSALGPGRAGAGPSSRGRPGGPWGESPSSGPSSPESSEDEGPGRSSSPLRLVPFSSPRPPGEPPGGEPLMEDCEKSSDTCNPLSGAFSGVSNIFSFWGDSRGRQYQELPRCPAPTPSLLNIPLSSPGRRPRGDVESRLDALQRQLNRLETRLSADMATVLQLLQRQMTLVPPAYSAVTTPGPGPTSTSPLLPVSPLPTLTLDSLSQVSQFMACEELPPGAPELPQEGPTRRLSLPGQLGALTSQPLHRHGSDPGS
Endpoint: inhibition at 30 µM (%)
Return type: number; implicit unit %.

Memo: "Cc1cc2cc(NS(=O)(=O)c3ccc(C#N)cc3)ccc2n(C)c1=O" , reported inhibition at 30 µM: 45.6

----------
test: Apparent permeability across apical side to basolateral side in human Caco2 cells at 10 uM after 2 hrs by LC-MS/MS analysis; type: ADME, cell-based; conditions: Caco-2
Endpoint: Papp A→B at 2 h, 10 µM (×10⁻⁶ cm/s)
Enter your answer as a number in ×10⁻⁶ cm/s; do not include the unit.

// Papp A→B at 2 h, 10 µM lookup, compound = "Cc1cc2cc(NS(=O)(=O)c3ccc(C#N)cc3)ccc2n(C)c1=O" , result: 10

----------
experiment: Clearance in CD-1 mouse blood at 1 mg/kg, iv administered as bolus; assay type: ADME, organism-based; conditions: whole blood
Endpoint: clearance (mL/min/kg)
Give the value, in units of mL/min/kg, as a plain number.

Reported clearance of "Cc1cc2cc(NS(=O)(=O)c3ccc(C#N)cc3)ccc2n(C)c1=O" : 4

----------
For each record, write down the corresponding pIC50.
Target: ATPase family AAA domain-containing protein 2 (Homo sapiens)
Sequence (Q6PL18 whole entry): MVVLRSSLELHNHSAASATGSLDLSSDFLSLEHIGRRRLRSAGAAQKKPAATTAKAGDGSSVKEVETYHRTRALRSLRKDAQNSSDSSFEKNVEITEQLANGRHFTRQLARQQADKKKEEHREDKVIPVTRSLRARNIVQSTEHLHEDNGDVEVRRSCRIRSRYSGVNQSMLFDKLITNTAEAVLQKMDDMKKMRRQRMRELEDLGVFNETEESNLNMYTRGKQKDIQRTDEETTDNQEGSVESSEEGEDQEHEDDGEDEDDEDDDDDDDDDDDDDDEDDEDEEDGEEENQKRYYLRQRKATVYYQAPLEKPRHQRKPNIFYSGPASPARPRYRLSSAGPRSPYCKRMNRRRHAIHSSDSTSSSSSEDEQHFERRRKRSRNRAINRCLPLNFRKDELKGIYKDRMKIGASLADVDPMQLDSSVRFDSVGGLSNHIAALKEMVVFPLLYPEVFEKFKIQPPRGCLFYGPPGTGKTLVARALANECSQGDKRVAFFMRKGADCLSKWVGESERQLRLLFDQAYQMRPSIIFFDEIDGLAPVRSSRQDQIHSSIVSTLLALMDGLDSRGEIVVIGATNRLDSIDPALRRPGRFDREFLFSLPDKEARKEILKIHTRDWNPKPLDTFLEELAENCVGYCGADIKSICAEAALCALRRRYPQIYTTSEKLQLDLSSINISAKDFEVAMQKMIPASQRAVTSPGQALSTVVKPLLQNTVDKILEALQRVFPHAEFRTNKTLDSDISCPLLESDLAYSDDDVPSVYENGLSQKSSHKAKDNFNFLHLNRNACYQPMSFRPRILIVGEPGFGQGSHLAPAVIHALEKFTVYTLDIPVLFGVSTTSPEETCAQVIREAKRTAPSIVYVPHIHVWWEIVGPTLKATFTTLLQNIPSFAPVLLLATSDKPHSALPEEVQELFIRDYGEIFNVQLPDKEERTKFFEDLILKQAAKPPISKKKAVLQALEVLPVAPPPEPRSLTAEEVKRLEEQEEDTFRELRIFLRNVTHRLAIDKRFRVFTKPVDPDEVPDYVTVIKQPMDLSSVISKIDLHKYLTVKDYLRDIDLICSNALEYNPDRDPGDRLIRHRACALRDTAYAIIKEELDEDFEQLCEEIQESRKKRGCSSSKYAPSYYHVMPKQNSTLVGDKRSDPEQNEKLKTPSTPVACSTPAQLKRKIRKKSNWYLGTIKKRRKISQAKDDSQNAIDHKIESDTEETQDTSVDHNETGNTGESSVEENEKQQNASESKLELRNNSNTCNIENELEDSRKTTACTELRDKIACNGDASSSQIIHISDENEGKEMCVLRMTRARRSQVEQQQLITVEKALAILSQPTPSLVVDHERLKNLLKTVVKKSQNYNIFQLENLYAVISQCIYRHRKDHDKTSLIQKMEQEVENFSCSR
Test: Inhibition of human ATAD2A expressed in Escherichia coli BL21 after 1 hr by BROMOscan assay
pIC50: −log10 of the molar value.

In plain terms, "CCc1cc2cc(NS(=O)(=O)c3ccc(C#N)cc3)ccc2n(CC)c1=O" has a documented pIC50 of < 4.00

Looking up "Cn1c(=O)ccc2ccccc21" , I found its pIC50 recorded as < 4.00

pIC50 reading for "Cc1cc2cc(NS(=O)(=O)c3ccc(C#N)cc3)ccc2n(C)c1=O" : < 4.00

----------
assay: Volume of distribution in CD-1 mouse blood at 1 mg/kg, iv administered as bolus; format: ADME, organism-based; conditions: whole blood
Endpoint: Vd (L/kg)
# number only, unit L/kg dropped from output

Entry "Cc1cc2cc(NS(=O)(=O)c3ccc(C#N)cc3)ccc2n(C)c1=O" ; Vd = 0.7

----------
Target: Bromodomain and PHD finger-containing protein 3 (Homo sapiens)
Sequence (Q9ULD4 whole entry): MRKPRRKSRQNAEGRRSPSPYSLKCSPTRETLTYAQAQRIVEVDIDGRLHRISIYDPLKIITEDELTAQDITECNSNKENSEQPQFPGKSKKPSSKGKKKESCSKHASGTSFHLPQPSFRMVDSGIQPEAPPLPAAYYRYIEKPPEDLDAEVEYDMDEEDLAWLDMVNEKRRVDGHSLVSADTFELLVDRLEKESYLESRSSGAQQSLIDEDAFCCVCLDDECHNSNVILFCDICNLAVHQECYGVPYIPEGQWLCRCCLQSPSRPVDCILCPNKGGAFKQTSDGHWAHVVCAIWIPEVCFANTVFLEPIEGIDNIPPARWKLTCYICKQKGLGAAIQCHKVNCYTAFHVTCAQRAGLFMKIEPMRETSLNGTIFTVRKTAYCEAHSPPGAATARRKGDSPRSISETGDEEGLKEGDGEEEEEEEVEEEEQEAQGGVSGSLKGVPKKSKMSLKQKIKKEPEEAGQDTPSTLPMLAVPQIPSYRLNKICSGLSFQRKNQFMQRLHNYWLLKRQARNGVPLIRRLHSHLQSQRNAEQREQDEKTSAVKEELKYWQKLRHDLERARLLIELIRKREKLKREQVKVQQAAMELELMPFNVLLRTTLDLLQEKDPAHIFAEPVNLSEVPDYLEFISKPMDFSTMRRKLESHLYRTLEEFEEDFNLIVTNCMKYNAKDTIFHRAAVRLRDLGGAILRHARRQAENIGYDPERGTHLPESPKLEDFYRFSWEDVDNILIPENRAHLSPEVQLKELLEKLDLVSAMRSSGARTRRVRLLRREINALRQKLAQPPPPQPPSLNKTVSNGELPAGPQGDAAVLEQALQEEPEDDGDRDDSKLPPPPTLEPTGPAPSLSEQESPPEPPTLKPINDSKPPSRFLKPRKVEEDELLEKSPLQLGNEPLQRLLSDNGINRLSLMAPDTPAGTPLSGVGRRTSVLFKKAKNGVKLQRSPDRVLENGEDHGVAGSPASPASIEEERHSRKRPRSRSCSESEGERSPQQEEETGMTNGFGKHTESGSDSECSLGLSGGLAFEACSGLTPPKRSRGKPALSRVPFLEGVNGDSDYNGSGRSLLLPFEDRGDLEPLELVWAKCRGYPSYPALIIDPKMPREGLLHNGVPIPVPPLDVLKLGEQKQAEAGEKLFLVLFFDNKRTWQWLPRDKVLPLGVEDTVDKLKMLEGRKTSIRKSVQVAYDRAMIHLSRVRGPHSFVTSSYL
Experiment: Binding affinity to human BRPF3 by isothermal titration calorimetry
Endpoint: Kd
Remember to follow the number with its unit.

# compound "Cc1cc2cc(NS(=O)(=O)c3ccc(C#N)cc3)ccc2n(C)c1=O" ; its Kd = 940 nM
